System: Uromyces appendiculatus
Assay: Example IX-D: in vivo preventive test on Uromyces appendiculatus (bean rust)
Settings: 264 h, compounds of formula IX, 500 ppm of active ingredient, bean plants, preventive spray, evaluated 11 days after inoculation, read-out: efficacy
Please go through the items and note down their pest or weed control at 500 ppm.

Ask: pest or weed control at 500 ppm lookup needed for O=C(Cn1cncc1Cl)c1ccc(Oc2ccc(Cl)cc2)cc1F [IX-45] , thanks.
Reply: 70 to 79%

Ask: For the compound shown here, O=C(Cn1cncc1F)c1ccc(Oc2ccc(Cl)cc2)cc1C(F)(F)F [IX-83] , give the reported pest or weed control at 500 ppm.
Reply: 90 to 100%

Ask: Fill in: pest or weed control at 500 ppm of O=C(Cn1cncc1Cl)c1ccc(Oc2ccc(Cl)cc2)cc1C(F)(F)F [IX-30] is ___
Reply: 90 to 100%

Ask: Bench note: what pest or weed control at 500 ppm did N#Cc1cncn1CC(=O)c1ccc(Oc2ccc(Cl)cc2)cc1C(F)(F)F [IX-54] show?
Reply: 70 to 79%

Ask: So what does the record say about pest or weed control at 500 ppm for O=C(Cn1cncc1C(F)(F)F)c1ccc(Oc2ccc(Cl)cc2)cc1F [IX-80] ?
Reply: 90 to 100%

* * *

Assay: Log P by HPLC on reversed phase columns (EEC directive 79/831 Annex V.A8; methods [a], [b], [c])
Assay type: physicochemical
parameterMeasured: LogP

Ask: Entry under review: N#Cc1cncn1CC(O)(c1cc(Br)c(F)cc1F)C1(F)CC1 (centres unmarked) . Reported LogP?
Reply: 2.47^[a]

Ask: For CC(C)(C)C(O)(C=CCC1CCCCC1)Cn1cncc1C#N (centres unmarked) , what is its reported LogP?
Reply: 4.05^[a]

Ask: Which LogP reading was recorded for the compound CC(O)(Cn1cncc1F)c1cnc(Oc2ccc(Br)cc2)cc1C(F)(F)F (single isomer, unassigned) [I-221] ?
Reply: 2.39^[a]

Ask: Can you look up the measured LogP of OC(Cn1cncc1Cl)c1ccc(Oc2ccc(Cl)cc2)cc1C(F)F (centres unmarked) for me?
Reply: 2.45^[a]

Ask: Look up LogP: C[Si](C)(C)C#Cc1ccc(C(O)(Cn2cncc2C#N)C2(Cl)CC2)c(F)c1 (centres unmarked)
Reply: 4.03^[a]

* * *

Experiment: Log P by HPLC on reversed phase columns (EEC directive 79/831 Annex V.A8; methods [a], [b], [c])
Type: physicochemical
Assignment: determine reported LogP for the given molecules.

Ask: If you can, please state the reported LogP value of N#Cc1cncn1CC(O)c1ccc(Oc2ccc(Cl)cc2F)nc1C(F)(F)F (centres unmarked) [I-136] .
Reply: 2.94^[a]

Ask: Recorded LogP for N#Cc1cncn1CC(O)(C#CCC1CCCCC1)CC1CC1 (centres unmarked) [I-428] , please?
Reply: 3.29^[a]

Ask: For CCCCC(O)(Cn1cncc1C#N)c1ccc(C(F)(F)F)cc1Cl (centres unmarked) [I-266] , what is its reported LogP?
Reply: 3.65^[a]

Ask: LogP for CC(O)(Cn1cncc1Cl)c1ccc(Oc2ccc(Cl)cc2)nc1C(F)(F)F (centres unmarked) [I-180] ?
Reply: 2.63^[a]

Ask: For the molecule N#Cc1cncn1CC(O)(c1ccc(Cl)cc1F)C1CCCC1 (centres unmarked) [I-458] , what LogP is on record?
Reply: 3.12^[a]

* * *

Assay: Log P by HPLC on reversed phase columns (EEC directive 79/831 Annex V.A8; methods [a], [b], [c])
Assay type: physicochemical
parameterMeasured: LogP

Ask: Any idea what its LogP is? The compound is N#Cc1cncn1CC(O)(c1cc(Cl)c(F)cc1Cl)C1(F)CC1 (centres unmarked)
Reply: 2.54^[a]

Ask: Which LogP is listed for N#Cc1cncn1CC(O)(c1ccc(Cl)cc1Cl)C1CC1 (centres unmarked) ?
Reply: 2.77^[a]

Ask: Which LogP value is on record for N#Cc1cncn1CC(O)(CC1CC1)c1ccc(Cl)c(F)c1 (centres unmarked) ?
Reply: 2.56^[a]

Ask: Item CC(C)(C)CC(O)(Cn1cncc1C#N)c1ccc(OC(F)(F)F)cc1 (centres unmarked) has what recorded LogP?
Reply: 3.50^[a]

Ask: So what does the record say about LogP for N#Cc1cncn1CC(O)c1ccc(Cl)cc1Cl (centres unmarked) ?
Reply: 2.12^[a]

* * *

Assay: Log P by HPLC on reversed phase columns (EEC directive 79/831 Annex V.A8; methods [a], [b], [c])
Type: physicochemical
parameterMeasured: LogP

Ask: Look at this compound and give its reported LogP. N#Cc1cncn1CC(O)c1ccccc1Cl (stereo not shown)
Reply: 1.57^[a]

Ask: Record request: LogP value, item N#Cc1cncn1CC(O)(c1cc(F)c(F)cc1Cl)C1(Cl)CC1 (stereo not shown)
Reply: 2.49^[a]

Ask: Could you tell me which LogP is on file for CC(C)(C)C(O)(Cn1cncc1C#N)c1ccc(Cl)cn1 (stereo not shown) ?
Reply: 2.73^[a]

Ask: What value of measured LogP is listed for CC(=O)c1cncn1CC(C)(O)c1ccc(Oc2ccc(Br)cc2)cc1Cl (stereo not shown) ?
Reply: 3.07^[a]

Ask: Given the compound N#Cc1cncn1CC(O)(c1ccc(C#CC2CCCC2)cc1Cl)C1(Cl)CC1 (stereo not shown) , what is its reported LogP?
Reply: 4.15^[a]

Ask: // query LogP value for entry N#Cc1cncn1CC(O)(c1cccc(Cl)c1Cl)C1(Cl)CC1 (stereo not shown)
Reply: 2.52^[a]

Ask: Entry N#Cc1cncn1CC(O)c1ccc(Oc2ccc(Br)cc2)cc1Br (stereo not shown) has what LogP?
Reply: 3.33^[a]

Ask: What does the record list as LogP for CC(=O)OC(Cn1cncc1F)c1ccc(Oc2ccc(Cl)cc2)cc1C(F)(F)F (stereo not shown) ?
Reply: 3.18^[a]

Ask: Query: LogP; subject: OC(Cn1cncc1Cl)c1ccc(Oc2ccc(Cl)nc2)cc1Cl (stereo not shown)
Reply: 1.86^[a]

Ask: LogP for N#Cc1cncn1CC(O)(C#CC1CCCCC1)C1(F)CC1 (stereo not shown) ?
Reply: 2.64^[a]

Ask: Value lookup for LogP; key = OC(Cn1cncc1Br)c1ccc(Oc2ccc(Br)cc2)cc1C(F)(F)F (stereo not shown)
Reply: 3.02^[a]

Ask: Give the measured LogP of COC(Cn1cncc1F)c1ccc(Oc2ccc(Cl)cc2)cc1C(F)(F)F (stereo not shown) .
Reply: 3.16^[a]

Ask: Which value of LogP has been reported for N#Cc1cncn1CC(O)(c1cc(Cl)c(F)cc1Cl)C1(Cl)CC1 (stereo not shown) in the records?
Reply: 2.70^[a]

Ask: Entry OC(Cn1cncc1Cl)c1ccc(Oc2ccc(I)cc2)cc1Cl (stereo not shown) has what LogP?
Reply: 2.94^[a]

Ask: Fill in the blank: the reported LogP of CCC(=O)OC(Cn1cncc1F)c1ccc(Oc2ccc(Cl)cc2)cc1C(F)(F)F (stereo not shown) is ____.
Reply: 3.54^[a]

Ask: Form field: reported LogP of N#Cc1cncn1CC(O)c1cnc(Oc2ccc(Cl)cc2)cc1C(F)(F)F (stereo not shown)
Reply: 2.87^[a]

Ask: # LogP lookup, item N#Cc1cncn1CC(O)(c1cccc(Cl)c1Cl)C1(F)CC1 (stereo not shown)
Reply: 2.39^[a]

Ask: Fill in the blank: the reported LogP of N#Cc1cncn1CC(O)(C#Cc1ccccc1)C1(F)CC1 (stereo not shown) is ____.
Reply: 2.20^[a]

Ask: Recorded LogP of CCCCC(O)(Cn1cncc1C#N)c1ccc(Cl)cc1F (stereo not shown) , please.
Reply: 3.19^[a]

Ask: Could you tell me which LogP is on file for OC(Cn1cncc1Cl)c1ccc(Oc2ccc(Br)cc2)cc1C(F)(F)F (stereo not shown) ?
Reply: 2.96^[a]

Ask: Any idea what its LogP is? The compound is CC(O)(Cn1cncc1Cl)c1ccc(Oc2ccc(C(F)(F)F)cc2)c(Br)c1 (stereo not shown)
Reply: 2.78^[a]

Ask: Need LogP of NC(=S)c1cncn1CC(O)(c1ccc(Cl)cc1Br)C1(F)CC1 (stereo not shown) , thanks.
Reply: 1.92^[a]

Ask: Would you mind telling me what LogP value was observed for CC(C)(C)C(O)(Cn1cncc1C#N)c1cc(F)cc(F)c1 (stereo not shown) ?
Reply: 2.64^[a]

Ask: I am curious: what LogP value has been reported for OC(Cn1cncc1C(F)(F)F)c1ccc(Oc2ccc(Cl)cc2)cc1F (stereo not shown) ?
Reply: 3.4^8[a]

Ask: Item COC(C)(Cn1cncc1Br)c1ccc(Oc2ccc(Cl)cc2)cc1C(F)(F)F (stereo not shown) has what recorded LogP?
Reply: 3.76^[a]

Ask: Could you tell me which LogP is on file for N#Cc1cncn1CC(O)(c1ccc(Cl)c(F)c1F)C1(Cl)CC1 (stereo not shown) ?
Reply: 2.60^[a]

Ask: # query: LogP of entry N#Cc1cncn1CC(O)(c1cc(Cl)cc(Cl)c1Cl)C1(Cl)CC1 (stereo not shown)
Reply: 2.80^[a]

Ask: # input compound: N#Cc1cncn1CC(O)c1ccc(Oc2ccc(Cl)cn2)cc1C(F)(F)F (stereo not shown) ; wanted: its LogP
Reply: 2.75^[a]

Ask: Item N#Cc1cncn1CC(O)(c1ccc(Br)cc1Cl)C1(Cl)CC1 (stereo not shown) [I-333] has what recorded LogP?
Reply: 2.73^[a]

Ask: Could you share which LogP value was measured for N#Cc1cncn1CC(O)(c1cc(F)c(Cl)c(F)c1)C1(F)CC1 (stereo not shown) ?
Reply: 2.54^[a]

Ask: Which measured LogP value corresponds to N#Cc1cncn1CC(O)(CC1CC1)c1cc(Br)cc(Br)c1 (stereo not shown) ?
Reply: 2.99^[a]

Ask: Which LogP value is on record for CC(O)(Cn1cncc1F)c1ccc(Oc2ccc(Br)nc2)nc1C(F)(F)F (stereo not shown) ?
Reply: 1.84^[a]

Ask: Would you kindly share the measured LogP for CC(O)(Cn1cncc1Br)c1ccc(Oc2ccc(Cl)cc2)cc1C(F)(F)F (stereo not shown) ?
Reply: 2.76^[a]

Ask: Which measured LogP value corresponds to N#Cc1cncn1CC(O)(c1cc(F)c(Cl)c(Cl)c1)C1(F)CC1 (stereo not shown) ?
Reply: 2.78^[a]

Ask: Form field: reported LogP of N#Cc1cncn1CC(O)(c1c(F)cccc1Cl)C1(Cl)CC1 (stereo not shown)
Reply: 2.32^[a]

Ask: GET /values?readout=LogP&item= CC(C)C(O)(Cn1cncc1C#N)c1ccc(F)cc1Cl (stereo not shown)
Reply: 2.60^[a]

Ask: Requested read-out: LogP. Entry: COC(C)(Cn1cncc1Br)c1ccc(Oc2ccc(Br)cc2)cc1C(F)(F)F (stereo not shown)
Reply: 3.89^[a]

Ask: May I ask what LogP has been recorded for CCCC(O)(Cn1cncc1C#N)c1ccc(Br)cc1Cl (stereo not shown) ?
Reply: 3.19^[a]

Ask: Consider the compound CCOC(Cn1cncc1Br)c1ccc(Oc2ccc(Cl)cc2)cc1C(F)(F)F (stereo not shown) and give its measured LogP.
Reply: 4.16^[a]

Ask: Quick one: LogP for CC(C)(C)C(O)(Cn1cncc1C#N)c1cc(F)c(F)c(Cl)c1 (stereo not shown) ?
Reply: 3.07^[a]

The measurements presented in this section are drawn from patent US20200031778A1.
